Recorded growth for the following compounds
# Test system: HCT-116 colon
# Procedure Details: NCI-60 one-dose screen, 48 h (100 = growth as untreated, 0 = no growth, -100 = all killed)
# Measurement Parameters: 10 µM unless noted
Compounds without any hit were thinned out: in the full panel of roughly 83,000, 20% have a hit.
Observable: growth (%)

[[record]]
compound = "Cc1nn(-c2ccccc2)c2nc(N)c(C3=NCCO3)nc12"
unit_of_measurement = "%"
reported_measurement = 95.8

[[record]]
compound = "O=C(c1ccccc1)C(CN1CCCCC1)c1ccccc1 (stereo unspecified)"
unit_of_measurement = "%"
reported_measurement = -100

[[record]]
compound = "CCN(CC)c1ccc(C(=C2C=CC(=[N+](CC)Cc3cccc(S(=O)(=O)O)c3)C=C2)c2ccc(N(CC)Cc3cccc(S(=O)(=O)O)c3)cc2)cc1"
unit_of_measurement = "%"
reported_measurement = 3.12

[[record]]
compound = "CCCCCCCC[Si](OCC)(OCC)OCC"
unit_of_measurement = "%"
reported_measurement = 101

[[record]]
compound = "O=C1Nc2ccc(Cl)cc2[C@@](C#CC2CC2)(C(F)(F)F)O1"
unit_of_measurement = "%"
reported_measurement = 82.9

[[record]]
compound = "Cc1ccc(S(=O)(=O)NCCN2c3nc4ccccc4cc3Sc3cc4ccccc4nc32)cc1"
unit_of_measurement = "%"
reported_measurement = 70.5

[[record]]
compound = "CN1C(=O)C(C2=NN(C=O)C(c3ccc(F)cc3)C2)C(=O)N(C)C1=O (stereo unspecified)"
unit_of_measurement = "%"
reported_measurement = 98.7

[[record]]
compound = "Cc1sc2nc3c4ccccc4c(NCCCN(C)C)nn3c(=O)c2c1C"
unit_of_measurement = "%"
reported_measurement = 36.1

[[record]]
compound = "COc1cccc(-c2nc3cc(NC(=O)c4ccc(Cl)c(C#N)c4)ccc3o2)c1"
unit_of_measurement = "%"
reported_measurement = -92.2

[[record]]
compound = "Cc1csc(C#Cc2cncc(O)c2)n1"
unit_of_measurement = "%"
reported_measurement = 103

[[record]]
compound = "Fc1ccc(-c2nn3c(-c4cc(C(F)(F)F)cc(C(F)(F)F)c4)nnc3s2)cc1"
unit_of_measurement = "%"
reported_measurement = -17.3

[[record]]
compound = "CC(C)N(Cc1ccccc1)c1c(S)ssc1=S"
unit_of_measurement = "%"
reported_measurement = 5.93

[[record]]
compound = "COc1ccc2nc(N/N=C(\\C)c3ccccn3)cc(C)c2c1"
unit_of_measurement = "%"
reported_measurement = -68.7

[[record]]
compound = "O=C(Nc1cccc(-n2cc(-c3ccncc3)c(-c3cc(O)cc(Cl)c3)n2)c1)Nc1ccc(Cl)c(Cl)c1"
unit_of_measurement = "%"
reported_measurement = -57.3

[[record]]
compound = "CC(C)C[C@H](NC(=O)/C=C/Cn1ccc2ccccc2c1=O)B(O)O"
unit_of_measurement = "%"
reported_measurement = 16.2

[[record]]
compound = "N=C1c2nc3n(c2C(=O)c2nc4n(c21)CCCCC4)CCCCC3"
unit_of_measurement = "%"
reported_measurement = 107

[[record]]
compound = "N#Cc1ncc(-c2ccc(C(F)(F)F)cc2)c(NC2CCCCCC2)n1"
unit_of_measurement = "%"
reported_measurement = 15.6

[[record]]
compound = "Cc1ccc(-c2c3c(N)nc(-c4ccncc4)nc3nc3c2c(C)nn3-c2ccccc2)cc1"
unit_of_measurement = "%"
reported_measurement = 12.7

[[record]]
compound = "O=C(Oc1cccc2ccccc12)c1ccccc1C(=O)c1ccccc1"
unit_of_measurement = "%"
reported_measurement = 82

[[record]]
compound = "N#Cc1c(-c2ccccc2)cc(-c2ccccc2)n(CCCCC(=O)O)c1=O"
unit_of_measurement = "%"
reported_measurement = 93.3

[[record]]
compound = "O=C(COc1ccc(/C=C2\\Oc3ccc4ccccc4c3C2=O)cc1)c1ccc(Cl)cc1"
unit_of_measurement = "%"
reported_measurement = 96.7


Numbers sourced from PubChem BioAssay (NCI).
